Reference for the values: the NIST ThermoML archive (doi:10.1021/je3002078)

- Measurement Setup: 303.15 K; 101.33 kPa; Liquid; Vibrating tube method
Reported Metric: mass density (kg/m3)
Use kg/m3 as the unit, but write only the number.

Some solved entries appear below for comparison.
# get_value(readout='mass density', item= `NCCO` )
1008.12

# get_value(readout='mass density', item= `OCCc1ccccc1` )
1012.65

# get_value(readout='mass density', item= `CN1CCCC1=O` )
1023.45

Field: next molecule
# get_value(readout='mass density', item= OCCCl [1-chloro-2-hydroxyethane] )
1192.48

* * *

- Measurement Setup: 308.15 K; 101.33 kPa; Liquid; Vibrating tube method
Reported Metric: mass density (kg/m3)
Use kg/m3 as the unit, but write only the number.

# get_value(readout='mass density', item= OCCCl [1-chloro-2-hydroxyethane] )
1186.44

# get_value(readout='mass density', item= NCCO [2-aminoethan-1-ol] )
1005.08

# get_value(readout='mass density', item= CN1CCCC1=O [N-methylpyrrolidone] )
1013.34

Field: next molecule
# get_value(readout='mass density', item= OCCc1ccccc1 [2-phenylethanol] )
1008.68
